Reference source for all entries: patent US20240400689A1

Listed binders paired with reported pEC50
Target: T1, human CD276 protein (human, UniProt Q5ZPR3 29-534)
T1 construct: whole, on cells; for SKOV3 and the other cancer lines the protein is the cells' own; also called B7-H3; B7H3
T1 sequence (looked up): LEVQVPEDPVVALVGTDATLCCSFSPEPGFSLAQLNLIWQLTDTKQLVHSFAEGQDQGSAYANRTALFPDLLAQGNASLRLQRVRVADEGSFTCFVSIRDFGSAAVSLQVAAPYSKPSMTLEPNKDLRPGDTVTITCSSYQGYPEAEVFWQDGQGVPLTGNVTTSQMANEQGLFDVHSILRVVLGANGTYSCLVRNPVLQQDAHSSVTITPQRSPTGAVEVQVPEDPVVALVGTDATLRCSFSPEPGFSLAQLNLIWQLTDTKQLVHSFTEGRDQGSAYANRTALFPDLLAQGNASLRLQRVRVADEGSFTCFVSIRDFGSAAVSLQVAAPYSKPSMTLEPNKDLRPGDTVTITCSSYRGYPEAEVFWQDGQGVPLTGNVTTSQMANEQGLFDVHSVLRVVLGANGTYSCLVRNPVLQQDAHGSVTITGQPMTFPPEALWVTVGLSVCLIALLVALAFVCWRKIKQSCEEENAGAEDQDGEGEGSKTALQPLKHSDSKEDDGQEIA
Experiment: FACS titration on SKOV3 cells (MFI against Conc. (nM)); unit taken from the concentration axis
Interpret pEC50 as the negative base-10 log of the concentration measured in mol/L.

Some binders with known pEC50 results, for comparison:
INPUT: I am curious: what pEC50 value has been reported for hVH3-hVL2-30 (antibody, V domains shown) VH: QVQLQESGPGLVKPSETLSLTCTVSGYSITSDYAWNWIRQPPGKGLEWIGYISHSGSTSYNPSLKSRVTISRDTSKNQFSLKLSSVTAADTAVYYCARSLGRRWYFDVWGQGTTVTVSS VL: DIVMTQSPDSLAVSLGERATINCKSSQSLLNSSTQKNYLAWYQQKPGQPPKLLIYFASTRDSGVPDRFSGSGSGTDFTLTISSLQAEDLAVYFCQQHYIIPFTFGQGTKLEIK ?
OUTPUT: 8.23

INPUT: I am curious: what pEC50 value has been reported for mVH-mVL1-30 (antibody, V domains shown) VH: EVQLVESGPGLVKPSQSLSLTCTVTGYSITSDYAWNWIRQFPGNKLEWMGYISHSGSTSYNPSLKSRISITRDTSKNQFFLQLNSVTTEDTATYYCARSLGRRWYFDVWGAGTTVTVSS VL: DIVMTQSPSSLAMSVGQKVTLSCKSSQSLLQSSTQKNYLAWYQQKPGQSPKLLVYFASTRDSGVPDRFIGSGSGTEFTLTISSVQAEDLADYFCQQHYIIPFTFGAGTKLEIK ?
OUTPUT: 8.02

---
INPUT: I am curious: what pEC50 value has been reported for hVH3-hVL5-30 (antibody, V domains shown) VH: QVQLQESGPGLVKPSETLSLTCTVSGYSITSDYAWNWIRQPPGKGLEWIGYISHSGSTSYNPSLKSRVTISRDTSKNQFSLKLSSVTAADTAVYYCARSLGRRWYFDVWGQGTTVTVSS VL: DIVMTQSPLSLPVTPGEPASISCKSSQSLLNSSTQKNYLAWYLQKPGQSPQLLIYFASTRDSGVPDRFSGSGSGTDFTLKISRVEAEDLGVYFCQQHYIIPFTFGQGTKLEIK ?
OUTPUT: 8.20

INPUT: I am curious: what pEC50 value has been reported for hVH1-hVL5-30 (antibody, V domains shown) VH: QVQLQESGPGLVKPSQTLSLTCTVSGYSITSDYAWNWIRQHPGKGLEWIGYISHSGSTSYNPSLKSRVTISRDTSKNQFSLKLSSVTAADTAVYYCARSLGRRWYFDVWGQGTTVTVSS VL: DIVMTQSPLSLPVTPGEPASISCKSSQSLLNSSTQKNYLAWYLQKPGQSPQLLIYFASTRDSGVPDRFSGSGSGTDFTLKISRVEAEDLGVYFCQQHYIIPFTFGQGTKLEIK ?
OUTPUT: 7.95

INPUT: I am curious: what pEC50 value has been reported for hVH2-hVL1-30 (antibody, V domains shown) VH: QVQLQESGPGLVKPSETLSLTCTVSGYSITSDYAWNWIRQPPGKGLEWIGYISHSGSTSYNPSLKSRVTISRDTSKNQFSLKLSSVTAADTAVYYCARSLGRRWYFDVWGQGTTVTVSS VL: DIQMTQSPSSLSASVGDRVTITCKSSQSLLNSSTQKNYLAWYQQKPGKAPKLLIYFASTRDSGVPSRFSGSGSGTDFTLTISSLQPEDLATYFCQQHYIIPFTFGQGTKLEIK ?
OUTPUT: 8.02

INPUT: I am curious: what pEC50 value has been reported for hVH4-hVL2-30 (antibody, V domains shown) VH: QVQLQESGPGLVKPSQTLSLTCAVYGYSITSDYAWNWIRQPPGKGLEWIGYISHSGSTSYNPSLKSRVTISRDTSKNQFSLKLSSVTAADTAVYYCARSLGRRWYFDVWGQGTTVTVSS VL: DIVMTQSPDSLAVSLGERATINCKSSQSLLNSSTQKNYLAWYQQKPGQPPKLLIYFASTRDSGVPDRFSGSGSGTDFTLTISSLQAEDLAVYFCQQHYIIPFTFGQGTKLEIK ?
OUTPUT: 8.01
